Data provenance: the supplement of paper PMC9732359

- METHOD_SUMMARY: protein stability index of a GFP-peptide fusion (yeast GPS) (PSI 1-4); higher = more stable; sorted into four equal gates, so the index is relative within each strain
- APPLIED_CONDITIONS: pdr5∆
Examples of sequences with documented protein stability index follow.
PROPERTY_LABEL: protein stability index

1) PLYVMDEIDAALDFRNV [SMC4]    2.33
2) QEIFDANVQRLKEYQSK [RPL13A]    3.4
3) IALMGQDNKKIYVHVRR [ESC2]    2.57
4) GCKNGSFTLLNQLSQTN [NUT1]    3.05
5) KGRNNESNNKKYPIFTG [YDL088C/ASM4]    2.95
6) VTGFAEVGPWGSARTRW [FAS2]    3.03
7) TRSAKKMVIAELLPHYP [YJR042W/NUP85]    2.81
8) VANSTKAAFIRVNGSEF [RPT3]    1.69
9) HYGQTLGKKKNVKEEET [RPS8A]    2.84
10) NYLNDMHDSNLQNNSDS [SKP1]    2.59
11) LVVLTDVVERLHKNFES [RGR1]    2.74
12) CVAAWGVCNHAFHLHCI [HRT1]    1.75
13) ETDNEMNGNGKPGIPRG [SIR3]    3.11
14) ETPSRLLLSPDQWYCID [ITC1]    3.21
15) KFFHNGMIYNKLFVSKE [FAS2]    2.54

====

Examples of sequences with documented protein stability index follow.
- METHOD_SUMMARY: protein stability index of a GFP-peptide fusion (yeast GPS) (PSI 1-4); higher = more stable; sorted into four equal gates, so the index is relative within each strain
- APPLIED_CONDITIONS: pdr5∆
PROPERTY_LABEL: protein stability index

1) IPGEYITYALSGYVRSR [RPS21B]    2.73
2) RYFWLDHNGVPFPQYPA [ITC1]    2.81
3) YFLKVTFLKYFGWLLSD [IRR1]    1.59
4) VHCRISCQIAQPYEDRP [RRP45]    2.12
5) DESNDIDMIADENGTNS [RPC37]    2.43
6) FAVALKNEPDYSKAKYP [CDC53]    2.46
7) VQRTMLELLNQLDGFSS [RPT5]    2.88
8) HITSVPISAVLRGCKFL [GRR1]    1.66
9) QPQPQPQQQQQHLQFNG [YDL088C/ASM4]    2.78
10) KTKAMVPPINCIFNFLQ [SME1]    1.65
11) HQQRMSRTAADILLRLC [YCG1]    1.63
12) KNKDSLVSNPHEIYGSM [SRB4]    3.09
13) NGCIFTLNPKTGHLFLK [PRP8]    2.92
14) PGGAASKSVPTPSLPIA [SNF5]    3.07
15) SKKAEKTGTKPAAVFAE [RPL4B]    2.8
16) LQRTILNRIINHMLIDS [RGR1]    2.4
17) QAPSELELQVAKTFIDL [RPS7B]    3.13
18) SIHAHGSTDVGYYLSLG [PUP1]    2.79
19) SNSNVTNPSSIFGGAGG [YOR098C/NUP1]    2.77
20) PTSPAYSPTSPSYSPTS [RPO21]    2.86
21) ADKNCAKLHRISPKIWC [PUP1]    2.1
22) TKTNVDNNSKAEASFTF [YLR335W/NUP2]    3.24
23) DFDGDEMNLHVPQTEEA [RPO31]    3.31
24) KQLQQPKSSPLKKNNYN [SIR4]    2.98
25) KERISVAAASKILSNLV [PRE2]    2.69
26) NESLIPLINLALIDTEF [YML103C/NUP188]    1.9
27) PSNFEINAEEIVDFTLP [PRP8]    3.18
28) KQIVHDSGRGAPLAKVV [RPL2A]    2.16
29) PQTMEHYKQQIAVLIEL [YCS4]    3.05
30) VNDVELAFKKNEMLLKR [MTW1]    3.46
